- Method: Rat pharmacokinetic study (IV and PO)
- Type: in vivo
- Experimental context: blood, IV 5 mg/kg
Consider the following molecules and their measured log10 AUC(0-t) readings.
Parameter value (number): base-10 log of AUC(0-t) in ng·h/mL.

Here is how some molecules turned out for log10 AUC(0-t).
O=C(Nc1ccc(-c2nc(N3CCOCC3)c3cccn3n2)cc1)Nc1cccnc1 [Example 14]: 4.00
O=C(NCCO)Nc1ccc(-c2nc(N3C[C@H]4CC[C@@H](C3)O4)c3cccn3n2)cc1 [Example 127]: 3.53
CN1CCN(C(=O)c2ccc(NC(=O)Nc3ccc(-c4nc(N5CCOCC5)c5cccn5n4)cc3)cc2)CC1 [Example 46]: 3.94
CN(C)C1CCN(C(=O)c2ccc(NC(=O)Nc3ccc(-c4nc(N5CCOCC5)c5cccn5n4)cc3)cc2)CC1 [Example 15]: 3.54
S=C(Nc1ccc(-c2nc(N3CCOCC3)c3cccn3n2)cc1)Nc1cccnc1 [Example 106]: 4.62
O=C(NCCO)Nc1ccc(-c2nc(N3CCOCC3)c3cccn3n2)cc1 [Example 29]: 4.22

# context switch: different molecule, same log10 AUC(0-t)
# log10 AUC(0-t) lookup, item OCCNC(=S)Nc1ccc(-c2nc(N3C[C@H]4CC[C@@H](C3)O4)c3cccn3n2)cc1 [Example 122]
4.06
